Assay: Hypotensive effect in anesthetized rats (carotid artery blood pressure)
Type: in vivo
Conditions: dose 3 μg/kg, i.v., rat; Examples as liposome formulation, comparative compound as lipid emulsion
MEASURED QUANTITY: Hypotensive effect, Maximum hypotension (mmHg)

>>> experimental_value("CCCCCCCCCCCCOCC(=O)OCCOC(=O)CCCCCC[C@H]1C(=O)C[C@@H](O)[C@@H]1/C=C/[C@@H](O)CCCCC")
9
>>> experimental_value("CCCCCCCCCCCCCCCCOCC(=O)OCCOC(=O)CCCCCC[C@H]1C(=O)C[C@@H](O)[C@@H]1/C=C/[C@@H](O)CCCCC")
3
>>> experimental_value("CCCCCCCCCC(=O)OC(C)OC(=O)CCCCCC[C@H]1C(=O)C[C@@H](O)[C@@H]1/C=C/[C@@H](O)CCCCC (stereo partly shown) [Comparative compound, PGE1 1-decanoyloxyethyl ester, reference compound]")
9
>>> experimental_value("CCCCCCCCCCCC(=O)OCCOC(=O)CCCCCC[C@H]1C(=O)C[C@@H](O)[C@@H]1/C=C/[C@@H](O)CCCCC")
7
